system: Cst6 (UniProt P40535)
Sequence (P40535 whole entry): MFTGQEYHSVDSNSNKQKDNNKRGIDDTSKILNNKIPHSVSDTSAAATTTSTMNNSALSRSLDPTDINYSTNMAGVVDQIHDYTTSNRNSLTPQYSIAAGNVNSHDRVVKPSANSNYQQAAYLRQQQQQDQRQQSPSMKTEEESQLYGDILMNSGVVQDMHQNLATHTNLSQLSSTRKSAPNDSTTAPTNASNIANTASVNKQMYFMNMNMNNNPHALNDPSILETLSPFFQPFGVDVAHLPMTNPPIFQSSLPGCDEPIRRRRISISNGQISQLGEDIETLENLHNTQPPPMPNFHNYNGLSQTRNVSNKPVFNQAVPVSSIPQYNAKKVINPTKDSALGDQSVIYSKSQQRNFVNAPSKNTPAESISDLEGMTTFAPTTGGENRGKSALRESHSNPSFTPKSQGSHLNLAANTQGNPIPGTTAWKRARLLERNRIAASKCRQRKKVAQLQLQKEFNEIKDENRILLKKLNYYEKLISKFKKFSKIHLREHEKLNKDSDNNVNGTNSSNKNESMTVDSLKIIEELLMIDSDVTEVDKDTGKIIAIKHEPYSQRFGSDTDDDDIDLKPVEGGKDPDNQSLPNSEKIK
experiment_summary: PBM E-score (8-mer binding enrichment) (E-score (-0.5 to 0.5)); higher = stronger / more preferred TF binding
assay_setup: protein concentration: 200 nM; construct: GST-DNA-binding domain
Over roughly 33,000 sequences, “E-score (-0.5 to 0.5)” has its median near -0.016; the highest 2% begin near 0.31. The sample holds the highest values, similar sequences and a random draw of the others, so the mix is not that of the screen.
Label rule, in plain words: PBM E-score of 0.1 and up is 1, under 0.1 is -1.

q: Is the recorded value of PBM E-score equal to or greater than 0.1 for this sequence? AGCCTGAA
a: -1

q: Quick check: does CTAGTCAA have PBM E-score greater than or equal to 0.1?
a: -1

q: Exam item: decide whether the reported PBM E-score for ACCCTTCG is at least 0.1.
a: -1

q: Confirm if PBM E-score reported for the sequence AATGACTA is 0.1 or above.
a: -1

q: Quick check: does TGCTGACA have PBM E-score greater than or equal to 0.1?
a: -1

q: Item AATGACGG with PBM E-score of 0.1 or above?
a: 1

q: Confirm if PBM E-score reported for the sequence CATGACAG is 0.1 or above.
a: 1

q: Identify whether the reported PBM E-score of the following sequence is 0.1 or greater: ACGTTACC
a: 1

q: Kindly determine if PBM E-score recorded for GTGCTTAA is above or exactly 0.1.
a: -1

q: Does the reported PBM E-score for CCATCAAG fall at or above the 0.1 mark?
a: -1

q: PBM E-score >= 0.1 for CATGACGG ?
a: 1

q: Exam item: decide whether the reported PBM E-score for CCGGATTC is at least 0.1.
a: -1

q: Assess whether reported PBM E-score for ACAGGAAG sits at 0.1 or higher.
a: -1

q: Say whether GACACTAC shows PBM E-score of 0.1 or more.
a: -1

q: Quick check, PBM E-score >= 0.1? ATGCAAAA
a: 1

q: // inclusive: PBM E-score at least 0.1? input: ACTGACGA
a: 1

q: Is reported PBM E-score greater than or equal to 0.1 here: CCTGACGA
a: 1

q: Would you say AAAAATTC shows PBM E-score at minimum 0.1?
a: 1

q: Dear colleague, could you confirm whether CATGACCG has PBM E-score at or above 0.1?
a: -1

q: State whether the measured PBM E-score reaches 0.1, counting equality as reaching it, for CATGACGA
a: 1

q: // inclusive: PBM E-score at least 0.1? input: AGCCCCAA
a: -1

---

system: Cst6 (UniProt P40535)
experiment_summary: PBM E-score (8-mer binding enrichment) (E-score (-0.5 to 0.5)); higher = stronger / more preferred TF binding
assay_setup: protein concentration: 200 nM; construct: GST-DNA-binding domain
Whole data set: some 33,000 sequences, median “E-score (-0.5 to 0.5)” near -0.016, cut for the highest 2% near 0.31. Only a selection was taken, and the highest values are over-represented in it overall.
assay_metric: PBM E-score
Kindly provide the number alone.

q: What value of PBM E-score has been recorded for this entry: TCATTGCA
a: 0.321

q: Requested read-out: PBM E-score. Entry: AATAAGAG
a: 0.055

q: Query (sequence): AGGCGTGG ; field requested: PBM E-score
a: -0.196

q: Quick one: PBM E-score for ATGGCGTC ?
a: 0.311

q: Any idea what PBM E-score was measured for ACACTTAA ?
a: 0.105

q: Reported PBM E-score, sequence GCGGCGTA : ____
a: 0.23

q: Look up PBM E-score: TACCGACA
a: 0.075

q: Can you share its PBM E-score? I mean this sequence: CCATCATA
a: 0.122

q: What does the record list as PBM E-score for AGATTACC ?
a: 0.144

q: Reported PBM E-score, sequence CCACCTCA : ____
a: -0.114

q: Param item = AAATCATA ; retrieve measured PBM E-score.
a: 0.275

q: If you can, please state the reported PBM E-score value of GCAGGAGA .
a: -0.202

q: PBM E-score for GCATTAAA ?
a: 0.163

q: Any idea what PBM E-score was measured for CCATCATC ?
a: 0.146

q: Which PBM E-score value belongs to ACGGCGTC ?
a: 0.347

q: Return reported PBM E-score; argument: CCTAATGC
a: -0.0866

q: Look up PBM E-score for this sequence: CTTCATAA
a: 0.182

q: # get_value(readout='PBM E-score', item= GCGTAACA )
a: 0.195

q: Requested field: PBM E-score. Item: AGGTAACT
a: 0.106

q: Can you share its PBM E-score? I mean this sequence: AATCAGAA
a: 0.00689

q: Reported PBM E-score, sequence CAGCCAAC : ____
a: -0.13

q: Entry under review: GCATTACA . Reported PBM E-score?
a: 0.187

q: Look up PBM E-score for this sequence: GGTTTTGA
a: 0.105

q: What does the record list as PBM E-score for AATAAGAT ?
a: 0.232

q: // query PBM E-score value for entry AGATGACT
a: 0.0398

q: Look up PBM E-score for this sequence: CGATTACA
a: 0.13

q: Which PBM E-score reading was recorded for the sequence GGCACCAC ?
a: -0.1

q: Quick one: PBM E-score of CGATTACC ?
a: -0.107

q: For the sequence CCATTGCA , what PBM E-score is on record?
a: 0.024

q: Which PBM E-score value belongs to GAGTTTGC ?
a: -0.0936

q: Need PBM E-score of ACCTCTCA , thanks.
a: -0.0889

q: Quick one: PBM E-score for ATCCATTG ?
a: 0.0328

q: # query: PBM E-score of entry TCAAGCGA
a: -0.00748

q: # get_value(readout='PBM E-score', item= AAATCATC )
a: 0.175

q: What value of PBM E-score has been recorded for this entry: ACTTTGAA
a: 0.0348

q: State the recorded PBM E-score for this entry: CCCGTTCC
a: -0.132

q: # input sequence: TCGTAACA ; wanted: its PBM E-score
a: 0.129

q: Suppose we examine the sequence ACAGGGCG ; what PBM E-score value has been reported?
a: 0.0932

q: Given TCCCTCGA , state its recorded PBM E-score.
a: -0.205

q: PBM E-score for TATAAGAA ?
a: 0.125

q: What value of PBM E-score has been reported for the following sequence? CAACACGG
a: 0.0445

q: # get_value(readout='PBM E-score', item= CTCGGTTA )
a: 0.0295

q: Consider the sequence shown here: GTAGATGA What is its recorded PBM E-score?
a: 0.181

q: Given the entry ACATTAAA , report its measured PBM E-score.
a: 0.198

q: Quick check: PBM E-score of GAGGATTA ?
a: -0.125

q: Can you share its PBM E-score? I mean this sequence: ACGGCGTA
a: 0.358

q: // PBM E-score lookup, key: AGATGACC
a: 0.0152

q: Which PBM E-score value belongs to ACGGCGTG ?
a: 0.314

q: # PBM E-score lookup, item GATAAGAA
a: 0.291

q: For AAGGGACT , what is its reported PBM E-score?
a: -0.229

q: Reported PBM E-score for AAACTCAC : what is it?
a: 0.0463

q: Item under review: TCATTAAA . Reported PBM E-score?
a: 0.352

q: Form field: reported PBM E-score of CACGCTAC
a: -0.134

q: For the sequence shown here, CTCAGTAC , give the reported PBM E-score.
a: -0.0935

q: Please report the recorded PBM E-score for GGGCTGGA .
a: -0.295

q: Name the reported PBM E-score value associated with the sequence AGTACTGC
a: -0.173

q: What measured PBM E-score goes with AGTCATAA ?
a: 0.217

q: Form field: reported PBM E-score of AGATTACG
a: 0.386

q: # get_value(readout='PBM E-score', item= ACATCGGC )
a: -0.0191

q: Entry CCAAGCGA has what PBM E-score?
a: -0.309

q: What value of PBM E-score has been reported for the following sequence? ACATTGCA
a: -0.0281

q: Given TGTCATAA , state its recorded PBM E-score.
a: 0.323

q: Param item = GCGTAACC ; retrieve measured PBM E-score.
a: 0.14

q: Report PBM E-score for CATAGACC please.
a: -0.13

q: Quick one: PBM E-score for ACCCCCGC ?
a: -0.33

q: Quick one: PBM E-score for TCATTACA ?
a: 0.368

q: Any idea what PBM E-score was measured for GCATCATA ?
a: 0.339

q: Param item = AGATTACT ; retrieve measured PBM E-score.
a: 0.144

q: Please give the measured PBM E-score for this sequence: CACAGGAA
a: -0.0714

q: What value of PBM E-score has been recorded for this entry: ACGTAACA
a: 0.386

q: Give the measured PBM E-score of ACGTAACG .
a: 0.39

q: Would you kindly share the measured PBM E-score for CCATTACA ?
a: 0.225

q: PBM E-score for ACATCAAG ?
a: 0.207

q: I would be grateful if you could share the reported PBM E-score for CAGCCCAG .
a: -0.383

q: PBM E-score for GAGCTAAA ?
a: -0.0615

q: Entry CGTCATAA has what PBM E-score?
a: 0.476

q: Need PBM E-score of GGGGAGAA , thanks.
a: -0.161

q: Sample ACCAGCAT — what was its PBM E-score?
a: -0.104

q: Entry under review: AGATGACG . Reported PBM E-score?
a: 0.473

q: # input sequence: CCGTTGCG ; wanted: its PBM E-score
a: 0.0674

q: Quick check: PBM E-score of GGGAGTAC ?
a: -0.226

q: Report PBM E-score for GTCCGAGA please.
a: 0.0681

q: Would you mind telling me what PBM E-score value was observed for ACGTAACT ?
a: 0.413

q: // returns reported PBM E-score for input ATGGATAC
a: -0.0649

q: Could you share which PBM E-score value was measured for GAAATAAC ?
a: 0.148

q: If you can, please state the reported PBM E-score value of TACCTAAA .
a: 0.14

q: // lookup PBM E-score for ACTCAAGT
a: -0.053

q: Which PBM E-score value belongs to CAGTGTGA ?
a: 0.158

q: Please give the measured PBM E-score for this sequence: CCGGCGTC
a: -0.0641

q: What measured PBM E-score goes with ACCCATGG ?
a: -0.144

q: Please report the recorded PBM E-score for CGGGCGAC .
a: -0.319

Values compiled from the supplement of paper PMC3334620.
